Would you mind telling me the reported perc_inhibition (% inhibition of the binding of a ligand specific for each target) of each entry?
biological target: CCK1 (CCKA) (h) (Homo sapiens, UniProt P32238); construct: purchased Eurofins Cerep (SafetyScreen44), recognised from the panel format; assay: In vitro CEREP profiling, CCK1 (CCKA) (h) (agonist radioligand); format: binding; conditions: test compound 10 uM
Sequence (P32238 whole entry): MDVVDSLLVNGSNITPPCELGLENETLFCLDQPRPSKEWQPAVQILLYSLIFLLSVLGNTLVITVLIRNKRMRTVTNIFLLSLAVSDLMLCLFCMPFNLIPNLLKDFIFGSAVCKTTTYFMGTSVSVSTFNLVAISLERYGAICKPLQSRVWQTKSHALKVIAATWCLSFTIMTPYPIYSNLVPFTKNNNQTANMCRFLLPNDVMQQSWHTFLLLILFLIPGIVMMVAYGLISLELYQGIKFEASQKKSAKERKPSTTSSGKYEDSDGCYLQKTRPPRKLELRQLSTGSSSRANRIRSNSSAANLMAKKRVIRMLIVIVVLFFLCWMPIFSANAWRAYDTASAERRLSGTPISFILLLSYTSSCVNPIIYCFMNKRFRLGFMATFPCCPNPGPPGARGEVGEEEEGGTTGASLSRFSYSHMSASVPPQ
Give bare numbers, in %.

Field: example entries. Status: answers known.
**Query** What measured perc_inhibition (% inhibition of the binding of a ligand specific for each target) goes with CC(C)[C@H](Nc1ncnc2[nH]c(-c3cnn(C)c3C#N)cc12)c1ccc2c(n1)OCCO2 ?
**Result** 1

**Query** What measured perc_inhibition (% inhibition of the binding of a ligand specific for each target) goes with CC(C)[C@H](Nc1ncnc2[nH]ccc12)c1ccc2c(c1)S(=O)(=O)CCC2 ?
**Result** -2

**Query** What measured perc_inhibition (% inhibition of the binding of a ligand specific for each target) goes with C[C@H](C(=O)O)[C@@H](NC(=O)c1ncnc2[nH]ccc12)c1ccc(Br)cc1 ?
**Result** 6

Provide reported perc_inhibition (% inhibition of the binding of a ligand specific for each target) for each item, in the same order as listed.
1. Cn1ncc(-c2cc3c(N[C@@H](c4ccc5c(n4)OCCO5)C(C)(C)C)ncnc3[nH]2)c1C#N
2. COc1ccc([C@H](Cc2nnn[nH]2)NC(=O)c2ncnc3[nH]ccc23)cc1
3. CNCc1cc(-c2cc3c(N[C@@H](c4ccc5c(c4)S(=O)(=O)CCC5)C(C)C)ncnc3[nH]2)co1
4. CC(C)[C@@H](Nc1ncnc2[nH]c(-c3cnn(C)c3C#N)cc12)c1ccc2c(n1)OCCO2

**Result**
1: 4; 2: -5; 3: -24; 4: 20

###

Tested on: CYP
Experiment: CYP inhibition
Assay type: in vitro ADME
Details: isoform 2C9; In vitro CYP inhibition pooled
Excerpt: Supplement media-1.zip/CYP_Inhibition.csv, table | column: ic50; potency
Would you mind telling me the reported IC50 of each entry?
Give bare numbers, in µM.

Field: example entries. Status: answers known.
**Query** What measured IC50 goes with CC(C)[C@H](Nc1ncnc2[nH]ccc12)c1ccc2c(c1)S(=O)(=O)CCC2 ?
**Result** 18.2

**Query** What measured IC50 goes with CC(C)[C@H](Nc1ncnc2[nH]c(-c3cnn(C)c3C#N)cc12)c1ccc2c(n1)OCCO2 ?
**Result** 5.93

More entries:
**Query** What measured IC50 goes with C[C@H](C(=O)O)[C@@H](NC(=O)c1ncnc2[nH]ccc12)c1ccc(Br)cc1 ?
**Result** 5.14

###

test: LogD; details: pH 7.4
Tick True if logd is 3 or greater. Tick False if logd is less than 3.

**Query** Is logd for Cc1nn(C)cc1-c1cc2c(NC(c3ccc4c(c3)S(=O)(=O)CCC4)C(C)C)ncnc2[nH]1 (centres unmarked) at or above 3?
**Result** True

**Query** Is logd for CNC(=O)Cn1cc(-c2cc3c(NC(c4ccc5c(c4)OCCO5)C(C)C)ncnc3[nH]2)cn1 (centres unmarked) at or above 3?
**Result** False

**Query** Is logd for CC(C)C(Nc1ncnc2[nH]ccc12)c1ccc2c(n1)OCCO2 (centres unmarked) at or above 3?
**Result** False

Here is the next item to consider.
**Query** Is logd for CC(C)C(Nc1ncnc2[nH]c(C(=O)NC3CCN(C)C3)cc12)c1ccc2c(c1)S(=O)(=O)CCC2 (centres unmarked) at or above 3?
**Result** False
